meta.source: ChEMBL document CHEMBL1131041

Documented Selectivity ratio across a set of compounds
- Assay Explanation: Relative affinity for guinea pig kappa1 and rat delta receptors
Measured Attribute: Selectivity ratio

- Oc1ccc2c3c1OC1c4[nH]c5cc(OCc6ccccc6)ccc5c4C[C@@]4(O)[C@@H](C2)N(CC2CC2)CC[C@]314 (some centres not stated): 70
- Oc1ccc2c3c1OC1c4[nH]c5ccc(-c6ccccc6)cc5c4C[C@@]4(O)[C@@H](C2)N(CC2CC2)CC[C@]314 (some centres not stated): 22
- Oc1ccc2c3c1OC1c4[nH]c5c(-c6ccccc6)cccc5c4C[C@@]4(O)[C@@H](C2)N(CC2CC2)CC[C@]314 (some centres not stated): 149
- Oc1ccc2c3c1OC1c4[nH]c5cccc(Oc6ccccc6)c5c4C[C@@]4(O)[C@@H](C2)N(CC2CC2)CC[C@]314 (some centres not stated): 19
- Oc1ccc2c3c1OC1c4[nH]c5ccc(Oc6ccccc6)cc5c4C[C@@]4(O)[C@@H](C2)N(CC2CC2)CC[C@]314 (some centres not stated): 4
- Oc1ccc2c3c1OC1c4[nH]c5ccc(OCc6ccccc6)cc5c4C[C@@]4(O)[C@@H](C2)N(CC2CC2)CC[C@]314 (some centres not stated): 19
- Oc1ccc2c3c1OC1c4[nH]c5cccc(OCc6ccccc6)c5c4C[C@@]4(O)[C@@H](C2)N(CC2CC2)CC[C@]314 (some centres not stated): 36

###

Documented Selectivity ratio across a set of compounds
- Target Desc: Opioid receptors; mu & delta (Rattus norvegicus) (UniProt P33533+P33535)
- Sequence (P33533 whole entry, looked up): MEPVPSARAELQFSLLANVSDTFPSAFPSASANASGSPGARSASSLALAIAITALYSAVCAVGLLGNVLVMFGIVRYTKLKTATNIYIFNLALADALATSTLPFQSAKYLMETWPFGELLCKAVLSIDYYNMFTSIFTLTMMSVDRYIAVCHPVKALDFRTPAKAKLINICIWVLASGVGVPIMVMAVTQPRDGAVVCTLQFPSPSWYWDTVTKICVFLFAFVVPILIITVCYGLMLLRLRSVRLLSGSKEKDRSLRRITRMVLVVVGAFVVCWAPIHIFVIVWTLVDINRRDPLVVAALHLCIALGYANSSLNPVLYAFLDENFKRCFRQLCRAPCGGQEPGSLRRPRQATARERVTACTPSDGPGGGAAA
- Sequence (P33535 whole entry, looked up): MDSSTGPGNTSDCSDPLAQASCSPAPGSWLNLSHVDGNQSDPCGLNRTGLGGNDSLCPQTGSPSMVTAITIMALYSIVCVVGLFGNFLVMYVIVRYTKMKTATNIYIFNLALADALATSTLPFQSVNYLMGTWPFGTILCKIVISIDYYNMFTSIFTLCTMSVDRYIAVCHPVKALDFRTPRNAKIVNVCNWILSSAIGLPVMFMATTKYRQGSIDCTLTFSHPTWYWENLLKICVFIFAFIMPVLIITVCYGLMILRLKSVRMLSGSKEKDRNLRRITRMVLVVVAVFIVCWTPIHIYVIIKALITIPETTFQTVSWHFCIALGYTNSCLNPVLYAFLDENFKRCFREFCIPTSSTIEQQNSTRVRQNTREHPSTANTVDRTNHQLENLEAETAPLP
- Assay Explanation: Relative affinity for mu and delta receptors in rat brain membranes
- Type: cell membranes
Measured Attribute: Selectivity ratio

* Oc1ccc2c3c1OC1c4[nH]c5ccc(OCc6ccccc6)cc5c4C[C@@]4(O)[C@@H](C2)N(CC2CC2)CC[C@]314 (some centres undefined) | 18
* Oc1ccc2c3c1OC1c4[nH]c5cc(OCc6ccccc6)ccc5c4C[C@@]4(O)[C@@H](C2)N(CC2CC2)CC[C@]314 (some centres undefined) | 101
* Oc1ccc2c3c1OC1c4[nH]c5cc(-c6ccccc6)ccc5c4C[C@@]4(O)[C@@H](C2)N(CC2CC2)CC[C@]314 (some centres undefined) | 71
* Oc1ccc2c3c1OC1c4[nH]c5ccc(/C=C/c6ccccn6)cc5c4C[C@@]4(O)[C@@H](C2)N(CC2CC2)CC[C@]314 (some centres undefined) | 21

###

- Target Desc: Delta-type opioid receptor (Mus musculus)
- Sequence (P32300 whole entry): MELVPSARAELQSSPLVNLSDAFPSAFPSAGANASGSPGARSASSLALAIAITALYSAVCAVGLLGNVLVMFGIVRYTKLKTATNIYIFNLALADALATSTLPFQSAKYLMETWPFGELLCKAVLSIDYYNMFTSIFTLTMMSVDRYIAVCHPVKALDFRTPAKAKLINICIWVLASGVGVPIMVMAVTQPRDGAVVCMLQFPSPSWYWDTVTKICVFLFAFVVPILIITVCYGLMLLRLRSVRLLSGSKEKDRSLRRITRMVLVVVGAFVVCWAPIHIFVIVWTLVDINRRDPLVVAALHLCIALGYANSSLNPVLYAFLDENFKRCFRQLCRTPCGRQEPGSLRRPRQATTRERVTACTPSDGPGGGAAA
- Assay Explanation: Partial agonist activity expressed as inhibition of contraction of mouse vas deferens (MVD) smooth muscle at 1 uM conc.
pIC50: −log10 of the molar value.
Measured Attribute: pIC50

* Oc1ccc2c3c1OC1c4[nH]c5cc(Oc6ccccc6)ccc5c4C[C@@]4(O)[C@@H](C2)N(CC2CC2)CC[C@]314 (stereo partly specified) | 5.52

###

- Target Desc: Delta-type opioid receptor (Mus musculus) (UniProt P32300)
- Assay Explanation: Displacement of DPDPE from Opioid receptor delta 1 of mouse vas deferens (MVD)smooth muscle
Documented Ke across a set of compounds
Measured Attribute: Ke (nM)

• Oc1ccc2c3c1OC1c4[nH]c5cccc(Oc6ccccc6)c5c4C[C@@]4(O)[C@@H](C2)N(CC2CC2)CC[C@]314 (stereo not given in full) = 17
• Oc1ccc2c3c1O[C@H]1c4[nH]c5ccccc5c4C[C@@]4(O)[C@@H](C2)N(CC2CC2)CC[C@]314 = 0.49
• Oc1ccc2c3c1OC1c4[nH]c5ccc(Oc6ccccc6)cc5c4C[C@@]4(O)[C@@H](C2)N(CC2CC2)CC[C@]314 (stereo not given in full) = 11
• Oc1ccc2c3c1OC1c4[nH]c5ccc(-c6ccccc6)cc5c4C[C@@]4(O)[C@@H](C2)N(CC2CC2)CC[C@]314 (stereo not given in full) = 9.4
• Oc1ccc2c3c1OC1c4[nH]c5cc(-c6ccccc6)ccc5c4C[C@@]4(O)[C@@H](C2)N(CC2CC2)CC[C@]314 (stereo not given in full) = 21
• Oc1ccc2c3c1OC1c4[nH]c5c(OCc6ccccc6)cccc5c4C[C@@]4(O)[C@@H](C2)N(CC2CC2)CC[C@]314 (stereo not given in full) = 1.7
• Oc1ccc2c3c1OC1c4[nH]c5cccc(-c6ccccc6)c5c4C[C@@]4(O)[C@@H](C2)N(CC2CC2)CC[C@]314 (stereo not given in full) = 66
• Oc1ccc2c3c1OC1c4[nH]c5cc(Oc6ccccc6)ccc5c4C[C@@]4(O)[C@@H](C2)N(CC2CC2)CC[C@]314 (stereo not given in full) = 4.6
• Oc1ccc2c3c1OC1c4[nH]c5ccc(OCc6ccccc6)cc5c4C[C@@]4(O)[C@@H](C2)N(CC2CC2)CC[C@]314 (stereo not given in full) = 4.8
• Oc1ccc2c3c1OC1c4[nH]c5c(Oc6ccccc6)cccc5c4C[C@@]4(O)[C@@H](C2)N(CC2CC2)CC[C@]314 (stereo not given in full) = 0.25

###

Documented Ki across a set of compounds
- Target Desc: Delta-type opioid receptor (Rattus norvegicus, UniProt P33533)
- Assay Explanation: Displacement of [3H]DADLE from Opioid receptor delta 1 of rat brain membranes (DAMGO quenching mu receptor)
- Type: cell membranes, Membrane
Measured Attribute: Ki (nM)

• Oc1ccc2c3c1OC1c4[nH]c5c(-c6ccccc6)cccc5c4C[C@@]4(O)[C@@H](C2)N(CC2CC2)CC[C@]314 (some centres not stated) = 2.1
• Oc1ccc2c3c1OC1c4[nH]c5cc(OCc6ccccc6)ccc5c4C[C@@]4(O)[C@@H](C2)N(CC2CC2)CC[C@]314 (some centres not stated) = 6.7
• Oc1ccc2c3c1OC1c4[nH]c5c(Oc6ccccc6)cccc5c4C[C@@]4(O)[C@@H](C2)N(CC2CC2)CC[C@]314 (some centres not stated) = 0.71
• Oc1ccc2c3c1OC1c4[nH]c5ccc(/C=C/c6ccccn6)cc5c4C[C@@]4(O)[C@@H](C2)N(CC2CC2)CC[C@]314 (some centres not stated) = 3.7
• Oc1ccc2c3c1OC1c4[nH]c5ccc(OCc6ccccc6)cc5c4C[C@@]4(O)[C@@H](C2)N(CC2CC2)CC[C@]314 (some centres not stated) = 4.4
• Oc1ccc2c3c1OC1c4[nH]c5cc(-c6ccccc6)ccc5c4C[C@@]4(O)[C@@H](C2)N(CC2CC2)CC[C@]314 (some centres not stated) = 18
• Oc1ccc2c3c1OC1c4[nH]c5ccc(Oc6ccccc6)cc5c4C[C@@]4(O)[C@@H](C2)N(CC2CC2)CC[C@]314 (some centres not stated) = 17.9

###

Documented Selectivity ratio across a set of molecules
- Assay Explanation: Relative affinity for guinea pig kappa1 and rat delta receptors
Measured Attribute: Selectivity ratio

* Oc1ccc2c3c1OC1c4[nH]c5cc(Oc6ccccc6)ccc5c4C[C@@]4(O)[C@@H](C2)N(CC2CC2)CC[C@]314 (stereo partly specified) | 37
* Oc1ccc2c3c1OC1c4[nH]c5cccc(-c6ccccc6)c5c4C[C@@]4(O)[C@@H](C2)N(CC2CC2)CC[C@]314 (stereo partly specified) | 57
* Oc1ccc2c3c1OC1c4[nH]c5ccc(/C=C/c6ccccn6)cc5c4C[C@@]4(O)[C@@H](C2)N(CC2CC2)CC[C@]314 (stereo partly specified) | 5
* Oc1ccc2c3c1OC1c4[nH]c5c(Oc6ccccc6)cccc5c4C[C@@]4(O)[C@@H](C2)N(CC2CC2)CC[C@]314 (stereo partly specified) | 47
* Oc1ccc2c3c1OC1c4[nH]c5cc(-c6ccccc6)ccc5c4C[C@@]4(O)[C@@H](C2)N(CC2CC2)CC[C@]314 (stereo partly specified) | 35
* Oc1ccc2c3c1OC1c4[nH]c5c(OCc6ccccc6)cccc5c4C[C@@]4(O)[C@@H](C2)N(CC2CC2)CC[C@]314 (stereo partly specified) | 83

###

- Target Desc: Delta-type opioid receptor (Rattus norvegicus, UniProt P33533)
- Assay Explanation: Displacement of [3H]DADLE from morphine-insensitive Opioid receptor delta 1 (presence of 50 nM morphine) of rat brain membranes
- Format: cell membranes, Membrane
pKi: −log10 of the molar value.
Measured Attribute: pKi

• Oc1ccc2c3c1OC1c4[nH]c5c(OCc6ccccc6)cccc5c4C[C@@]4(O)[C@@H](C2)N(CC2CC2)CC[C@]314 (some centres not stated) = 8.60
• Oc1ccc2c3c1OC1c4[nH]c5c(-c6ccccc6)cccc5c4C[C@@]4(O)[C@@H](C2)N(CC2CC2)CC[C@]314 (some centres not stated) = 9.34
• Oc1ccc2c3c1OC1c4[nH]c5ccc(Oc6ccccc6)cc5c4C[C@@]4(O)[C@@H](C2)N(CC2CC2)CC[C@]314 (some centres not stated) = 8.31
• Oc1ccc2c3c1OC1c4[nH]c5cccc(OCc6ccccc6)c5c4C[C@@]4(O)[C@@H](C2)N(CC2CC2)CC[C@]314 (some centres not stated) = 7.76
• Oc1ccc2c3c1OC1c4[nH]c5c(Oc6ccccc6)cccc5c4C[C@@]4(O)[C@@H](C2)N(CC2CC2)CC[C@]314 (some centres not stated) = 9.21
• Oc1ccc2c3c1OC1c4[nH]c5cc(Oc6ccccc6)ccc5c4C[C@@]4(O)[C@@H](C2)N(CC2CC2)CC[C@]314 (some centres not stated) = 8.31
• Oc1ccc2c3c1OC1c4[nH]c5cc(OCc6ccccc6)ccc5c4C[C@@]4(O)[C@@H](C2)N(CC2CC2)CC[C@]314 (some centres not stated) = 8.20
